The measurements presented in this section are drawn from patent US20220204609A1.

- Test Target: T1, Claudin18.2 on cells (human, UniProt P56856-2 1-261)
- T1 construct: whole, on cells; the cell line of each result is named under assay or readout
- Method Summary: flow cytometry on 293T-Claudin18.2 cells, antibody at 3 µg/mL
Parameter: mean fluorescence intensity. Scope: all listed entries.
The response must contain the number and no unit.

Worked examples follow.
binder="IMAB362 (antibody, human IgG1, kappa, V domains shown) VH: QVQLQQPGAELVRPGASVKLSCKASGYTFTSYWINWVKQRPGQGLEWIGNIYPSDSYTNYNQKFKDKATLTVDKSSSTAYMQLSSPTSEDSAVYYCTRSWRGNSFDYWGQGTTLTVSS VL: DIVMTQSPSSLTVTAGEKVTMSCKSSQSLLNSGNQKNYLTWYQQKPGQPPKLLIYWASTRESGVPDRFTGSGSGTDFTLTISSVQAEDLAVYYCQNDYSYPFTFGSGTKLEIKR" recorded_measurement=902000
binder="CLDQ1-CA841-IgG1 (antibody, V domains shown, Complete IgG1 made in HEK293 cells) VH: QVQLVQSGAEVKKPGSSVKVSCKASGGTFSSYAISWVRQAPGQGLEWMGRIIPILGIANYAQKFQGRVTVTADKSTSTAYMELSSLRSEDTAVYYCARERDNWDPYYYYYGMDVWGQGTTVTVSS VL: DIQMTQSPSTLSASVGDRVTITCRASQSINSWLAWYQQKPGKAPKLLIYKASSLESGVPSRFSGSGSGTEFTLTISSLQPDDFATYYCQQYNSFPLTFGGGTKVEIKR" recorded_measurement=1.09e+06
binder="CLD389-279-IgG1 (antibody, V domains shown, Complete IgG1 made in HEK293 cells; also called C279; CLD389-C279) VH: EVQLVQSGGGVVQPGRSLRLSCAASGFTFSNYAMHWVRQAPGKGLEWVAVISYDGSNKYYADSVKGRFTISRDNSKNTLYLQMNSLRAEDTAVYYCARELRFFDWLLGRAFDIWGQGTMVTVSS VL: EIVMTQSPPSLSASVGDRVTITCRASQGIRNDLGWYQQKPGKAPKLLIYAASSLQSGVPSRFSGSGSGTDFTLTISSLQPEDFATYYCLQDYNYPWTFGQGTKLEIKR" recorded_measurement=1.24e+06
binder="CLD389-CA802-IgG1 (antibody, V domains shown, Complete IgG1 made in HEK293 cells) VH: QVQLVESGGGVVQPGRSLRLSCAASGFTFSSYAMHWVRQVPGKGLEWVAIISYDGSIKYYADSVKGQFTISRDNSKNTLSLQMNSLRPEDTAVYYCARDPTMVRGVRGMDVWGQGTTVTVSS VL: DIQMTQSPSSLSASVGDRVTITCRASQGIRNDLGWYQQKPGKAPKLLIYAASSLQSGVPSRFSGSGSGTDFTLTISSLQPEDFATYYCLQDYNYPLTFGGGTKLEIKR" recorded_measurement=1.23e+06

Task item: Sample CLD389-CA852-IgG1 (antibody, V domains shown, Complete IgG1 made in HEK293 cells) VH: QVQLVESGGGVVQPGRSLRLSCAASGFTFSSYAMHWVRQAPGKGLEWVAVISYDGSKKYYADSVKGRFTISRDNSKNTLYLQMNSLRAEDTAVYYCARDPTMVRGVRGMDVWGQGTTVTVSS VL: EIVMTQSPSTLSASIGDRVTITCRASQGIRNDLGWYQQKPGKAPKLLIYAASSLQSGVPSRFSGSGSGTDFTLTISSLQPEDFATYYCLQDYNYPLTFGGGTKVEIKR — what was its mean fluorescence intensity?
Reply: 742000
